# TARGET: hDGAT1 (Homo sapiens (Human), UniProt O75907)
# Sequence (O75907 whole entry): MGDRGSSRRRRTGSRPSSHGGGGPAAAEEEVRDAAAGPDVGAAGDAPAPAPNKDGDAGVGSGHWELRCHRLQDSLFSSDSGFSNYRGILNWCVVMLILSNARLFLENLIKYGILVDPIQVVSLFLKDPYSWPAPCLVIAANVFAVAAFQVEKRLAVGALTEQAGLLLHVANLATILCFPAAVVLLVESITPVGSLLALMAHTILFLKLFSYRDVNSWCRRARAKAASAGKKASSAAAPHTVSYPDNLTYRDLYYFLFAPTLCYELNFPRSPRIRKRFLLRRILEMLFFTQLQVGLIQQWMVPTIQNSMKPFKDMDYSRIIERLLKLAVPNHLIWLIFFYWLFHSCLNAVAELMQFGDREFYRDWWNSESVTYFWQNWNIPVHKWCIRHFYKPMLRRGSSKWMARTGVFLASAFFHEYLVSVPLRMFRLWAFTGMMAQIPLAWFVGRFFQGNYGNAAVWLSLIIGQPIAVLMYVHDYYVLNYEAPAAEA
# ASSAY COMMENT: Inhibition of human microsomal DGAT activity (14C-TAG formation, intestinal microsomes)
# Assay type: biochemical
# Protocol: The inhibition of DGAT-1 activity can be assessed in intestinal microsome preparations by monitoring the incorporation of radiolabeled fatty acyl-CoA into […]. Methods: Commercial microsomal preparations containing 60 ug of protein are incubated in assay buffer [20 uM 1,2-didecanloyl glycerol, 5 uM ^14C decanoyl-CoA, 5 mM MgCl2, 0.4% BSA, 0.1% dimethyl sulfoxide (DMSO), 50 mM HEPES-pH 7.5] in the presence of varying concentrations of inhibitors that are dispensed from 100% DMSO stock solutions. […]
pIC50: −log10 of the molar value.
READOUT LABEL: pIC50

Specify reported pIC50 for the compound shown: CCOP(=O)(O)OC1CCC(c2ccc(C3=Nc4c(N)ncnc4OC3(C)C)cc2)CC1 (stereo not shown) [Compound 9]
> 8.00
